Test system: MDAMB453
assayMethodText: Cell proliferation assay with Alamar Blue (AB), MDAMB453
Type: cell-based
testSettings: MDAMB453 cells, read-out: AB: MDAMB453 IC50
propertyMeasured: pIC50
The meaning of pIC50 here: minus log10 of the concentration in molar units.

# example entries with known answers
{"compound": "CN1C(=O)NC(=Cc2cnn3c(NC4CC4)cc(Nc4ccc(C#N)cc4)nc23)C1=O", "pIC50": 6.16}
{"compound": "CC(CNc1cc(Nc2ccc(C#N)cc2Cl)nc2c(C=C3NC(=O)NC3=O)cnn12)N1CCOCC1 (racemic)", "pIC50": 5.82}
{"compound": "O=C1NC(=O)C(=Cc2cnn3c(NC4CC4)cc(Oc4cccc(Cl)c4)nc23)N1", "pIC50": 4.97}
{"compound": "CN1C(=O)NC(=Cc2cnn3c(NC4CC4)cc(Nc4ccc(C#N)c(Cl)c4)nc23)C1=O", "pIC50": 5.89}
{"compound": "N#Cc1ccc(Oc2cc(NC3CC3)n3ncc(C=C4NC(=O)NC4=O)c3n2)c(Cl)c1", "pIC50": 5.86}

Please look up its pIC50: O=C1NC(=O)C(=Cc2cnn3c(NC4CC4)cc(Nc4ccc(OCCN5CCOCC5)c(Cl)c4)nc23)N1 5.96

Try the compound O=C1NC(=O)C(=Cc2cnn3c(NC4CC4)cc(Nc4ccc(OCCN5CCOCC5)cc4F)nc23)N1 5.56
